# ASSAY_REMARKS: 3T3 Neutral Red uptake cytotoxicity and phototoxicity assay
# PROTOCOL_CONDITIONS: mouse, Balb/c 3T3 fibroblasts (clone 31), Viability (%), –Irr, 0.316 μg/mL
ASSAY_READOUT: viability at 82 min, 0.316 μg/mL (%)
Numbers only, in %.

viability at 82 min, 0.316 μg/mL lookup needed for "FC(F)(F)C1(c2ccc(C(c3ccc(C4(C(F)(F)F)N=N4)cc3)(C(F)(F)F)C(F)(F)F)cc2)N=N1" , thanks. 102

* * *

# ASSAY_REMARKS: 3T3 Neutral Red uptake cytotoxicity and phototoxicity assay
# PROTOCOL_CONDITIONS: mouse, Viability (%), –Irr, 1 μg/mL
ASSAY_READOUT: viability at 82 min, 1 μg/mL (%)
Give bare numbers, in %.

viability at 82 min, 1 μg/mL lookup needed for c1ccc2cc3ccccc3cc2c1 [anthracene] , thanks. 100

* * *

# ASSAY_REMARKS: 3T3 Neutral Red uptake cytotoxicity and phototoxicity assay
# PROTOCOL_CONDITIONS: mouse, Viability (%), +Irr, 0.0316 μg/mL
ASSAY_READOUT: viability at 82 min, 0.0316 μg/mL (%)
One number for each entry, in %.

viability at 82 min, 0.0316 μg/mL lookup needed for "c1ccc2cc3ccccc3cc2c1" , thanks. 60.3

* * *

# ASSAY_REMARKS: 3T3 Neutral Red uptake cytotoxicity and phototoxicity assay
# PROTOCOL_CONDITIONS: mouse, Balb/c 3T3 fibroblasts (clone 31), Viability (%), –Irr, 3.16 μg/mL
ASSAY_READOUT: viability at 82 min, 3.16 μg/mL (%)
Give bare numbers, in %.

viability at 82 min, 3.16 μg/mL lookup needed for "FC(F)(F)C1(c2ccc(C(c3ccc(C4(C(F)(F)F)N=N4)cc3)(C(F)(F)F)C(F)(F)F)cc2)N=N1" , thanks. 100

* * *

# ASSAY_REMARKS: 3T3 Neutral Red uptake cytotoxicity and phototoxicity assay
# PROTOCOL_CONDITIONS: mouse, Balb/c 3T3 fibroblasts (clone 31), Viability (%), +Irr, 31.6 μg/mL
ASSAY_READOUT: viability at 82 min, 31.6 μg/mL (%)
Answers are plain numbers, in %.

viability at 82 min, 31.6 μg/mL lookup needed for "FC(F)(F)C1(c2ccc(C(c3ccc(C4(C(F)(F)F)N=N4)cc3)(C(F)(F)F)C(F)(F)F)cc2)N=N1" , thanks. 106

* * *

# ASSAY_REMARKS: 3T3 Neutral Red uptake cytotoxicity and phototoxicity assay
# PROTOCOL_CONDITIONS: mouse, Balb/c 3T3 fibroblasts (clone 31), Viability (%), +Irr, 3.16 μg/mL
ASSAY_READOUT: viability at 82 min, 3.16 μg/mL (%)
Numbers only, in %.

viability at 82 min, 3.16 μg/mL lookup needed for "FC(F)(F)C1(c2ccc(C(c3ccc(C4(C(F)(F)F)N=N4)cc3)(C(F)(F)F)C(F)(F)F)cc2)N=N1" , thanks. 101

* * *

# ASSAY_REMARKS: 3T3 Neutral Red uptake cytotoxicity and phototoxicity assay
# PROTOCOL_CONDITIONS: mouse, Balb/c 3T3 fibroblasts (clone 31), Viability (%), +Irr, 0.316 μg/mL
ASSAY_READOUT: viability at 82 min, 0.316 μg/mL (%)
Answers are plain numbers, in %.

viability at 82 min, 0.316 μg/mL lookup needed for FC(F)(F)C1(c2ccc(C(c3ccc(C4(C(F)(F)F)N=N4)cc3)(C(F)(F)F)C(F)(F)F)cc2)N=N1 [BondLynx] , thanks. 101

Hey, just so you know, these numbers are from paper PMC10916352.
